Data provenance: PubChem BioAssay (NCI)

System: SR leukemia
Protocol description: NCI-60 one-dose screen, 48 h (100 = growth as untreated, 0 = no growth, -100 = all killed)
Condition label: 10 µM unless noted
About 83,000 compounds went through this panel and 20% of them were active in at least one assay; those are over-represented in the sample as a whole. The source made the active and inactive calls. How the source made its calls: active means growth percent below 10; inactive means the rest.
Measure: growth

Q) Reported growth for COc1ccccc1NC(=O)c1sc2nc3c(cc2c1N)C(=O)CCC3 : what is it?
A) 64% (inactive)

Q) Reported growth for CCSc1nc(-c2ccco2)n2nc(-c3ccco3)cc2n1 : what is it?
A) 93% (inactive)

Q) Reported growth for FC(F)(F)c1ccc(-c2cnc(-c3nn[nH]n3)nc2NC2CCCCCC2)cc1 : what is it?
A) 15.1% [50 µM] (inactive)

Q) Reported growth for Cn1ccnc1C(=O)/C=C/c1ccc(C(=O)Nc2nc3ccccc3[nH]2)cc1 : what is it?
A) 11.2% (inactive)

Q) Reported growth for NC(=NCCCCCCN=C(N)/N=C(\N)Nc1ccc(Cl)cc1)/N=C(\N)Nc1ccc(Cl)cc1 : what is it?
A) 25.1% (inactive)

Q) Reported growth for Cc1n(Cc2ccc3ccccc3c2)c2ccccc2[n+]1Cc1ccc2ccccc2c1 : what is it?
A) -35.5% (active)

Q) Reported growth for Cc1[nH]cnc1/C=C1\SC(N2CCCCC2)=NC1=O : what is it?
A) 97.7% (inactive)

Q) Reported growth for Cc1cn(C(C=O)OC(C=O)CO)c(=O)[nH]c1=O (stereo unspecified) : what is it?
A) 93.9% (inactive)

Q) Reported growth for CSc1nc2nc3c(c(-c4ccc(C)cc4)c2c(=O)[nH]1)CN(C)C/C3=C\c1ccc(C)cc1 : what is it?
A) 86.9% (inactive)

Q) Reported growth for CCSc1nc(Nc2ccc(S(=O)(=O)Nc3ccon3)cc2)c(C#N)c(-c2cccc(Br)c2)n1 : what is it?
A) 93.7% (inactive)

Q) Reported growth for O=C(Nc1cccc(Cl)c1)Nc1cccc(Cl)c1 : what is it?
A) 66.4% (inactive)

Q) Reported growth for O=C(Nc1ccccc1)c1cc(-n2cnc([N+](=O)[O-])c2)cc(-n2cnc([N+](=O)[O-])c2)n1 : what is it?
A) 84.2% (inactive)

Q) Reported growth for C[C@H]1c2cccc(O)c2C(O)=C2C(=O)[C@]3(O)C(O)=C(C(N)=O)C(=O)[C@@H](N(C)C)[C@@H]3[C@@H](O)[C@@H]21 : what is it?
A) 30% (inactive)

Q) Reported growth for COC(=O)[C@H](CCCCNC(=O)OCc1ccccc1)NC(=O)[C@@H](NC(=O)Nc1cc(C(F)(F)F)cc(C(F)(F)F)c1)C(C)C : what is it?
A) -23.3% [100 µM] (active)

Q) Reported growth for Nc1ccc2c(c1Br)Cc1ccccc1-2 : what is it?
A) 93.6% (inactive)

Q) Reported growth for COc1ccc2ncccc2c1Cc1c(OC)ccc2ncccc12 : what is it?
A) 25.7% (inactive)

Q) Reported growth for c1ccc(N2c3nc4ccccc4cc3Sc3cc4ccccc4nc32)nc1 : what is it?
A) 77.7% (inactive)

Q) Reported growth for COc1ccc(C2CC(c3ccc4c(c3)OCO4)=NN2C=O)cc1 (stereo unspecified) : what is it?
A) 100% (inactive)

Q) Reported growth for CN1CCC[C@@H]1CCO[C@](C)(c1ccccc1)c1ccc(Cl)cc1 : what is it?
A) 59.7% (inactive)

Q) Reported growth for COc1ccc2c(c1)CC/C(=C\c1ccc(OCC(=O)Nc3nc4ccccc4s3)cc1)C2=O : what is it?
A) 68.4% (inactive)

Q) Reported growth for COc1cc(NC(=O)NCc2ccco2)ccc1-c1ccc(NC(=O)NCc2ccco2)cc1OC : what is it?
A) 55.6% (inactive)

Q) Reported growth for Nc1ccc(N=Nc2ccccc2)cc1[N+](=O)[O-] : what is it?
A) 93.2% (inactive)

Q) Reported growth for CCCCCCCC[Si](OCC)(OCC)OCC : what is it?
A) 79.4% (inactive)

Q) Reported growth for CC(=O)N1N=C(c2ccc(Nc3nc(NCCO)nc(NCCO)n3)cc2)CC1c1ccc(Cl)cc1 (stereo unspecified) : what is it?
A) 142% (inactive)

Q) Reported growth for COc1ccc(Cl)cc1Nc1nc(C(F)(F)F)ccc1C(=O)N/N=C/c1c(Cl)cccc1Cl : what is it?
A) 22% (inactive)

Q) Reported growth for C(=C1c2ccccc2-c2ccccc21)c1ccccn1 : what is it?
A) 22.6% (inactive)

Q) Reported growth for O=C(N/N=C/c1cccc([N+](=O)[O-])c1)c1ccc(Br)o1 : what is it?
A) 134% (inactive)

Q) Reported growth for CC(=O)c1nn(-c2ccccc2)c(=Nc2ccccc2)cc1C : what is it?
A) 99.3% (inactive)

Q) Reported growth for Cc1cc(-c2ccccc2)cc(C)n1 : what is it?
A) 99.4% (inactive)

Q) Reported growth for C[C@H](C(=O)N[C@@H](Cc1ccc(-c2ccccc2)cc1)C(=O)NC1CC(C)(C)N(C)C(C)(C)C1)c1ccc(-c2ccccc2)c(F)c1 : what is it?
A) -40.5% (active)

Q) Reported growth for COCCOCCOCCOCCOc1ccc2c(c1)C(=O)c1nc3ncccc3c(=O)n1-2 : what is it?
A) -86.3% (active)

Q) Reported growth for Cc1ccc(NC(=O)c2sc3nc4c(cc3c2N)C(=O)CCC4)cc1 : what is it?
A) 63.1% (inactive)

Q) Reported growth for CCC(C)C1NC(=O)C(CCNCS(=O)(=O)O)NC(=O)C(NC(=O)C(CCNCS(=O)(=O)O)NC(=O)C(NC(=O)C(CCNCS(=O)(=O)O)NC(=O)CCCCC(C)C)C(C)O)CCNC(=O)C(C(C)O)NC(=O)C(CCNCS(=O)(=O)O)NC(=O)C(CCNCS(=O)(=O)O)NC(=O)C(C(C)CC)NC1=O (stereo unspecified) : what is it?
A) 16.4% (inactive)

Q) Reported growth for C[C@H]1O[C@@H](O[C@H]2[C@@H](O)C[C@H](O[C@H]3[C@@H](O)C[C@H](O[C@H]4CC[C@]5(C)C6CC[C@]7(C)[C@@H](C8=CC(=O)OC8)CC[C@]7(O)C6CC[C@@H]5C4)O[C@@H]3C)O[C@@H]2C)C[C@H](O)[C@@H]1O (stereo partly specified) : what is it?
A) -32.7% (active)

Q) Reported growth for C[C@H]1O[C@@H](O[C@H]2[C@@H](O)C[C@H](O[C@H]3[C@@H](O)C[C@H](O[C@H]4CC[C@]5(C)C6C[C@@H](O)[C@]7(C)[C@@H](C8=CC(=O)OC8)CC[C@]7(O)C6CC[C@@H]5C4)O[C@@H]3C)O[C@@H]2C)C[C@H](O)[C@@H]1O (stereo partly specified) : what is it?
A) -9.87% (active)

Q) Reported growth for COC(=O)CC1=C(c2ccc([N+](=O)[O-])cc2)CCC1=O : what is it?
A) 104% (inactive)
